molecular target: OsPYL2 (Oryza sativa); construct: recombinant, E. coli BL21(DE3), pET-15b, Ni-NTA; mainly dimer; residues named: K74, F76, V98, L102, P103, A104, S107, E109, V125, L132, E162, F180, V184, N188; assay: isothermal titration calorimetry
Sequence (Q5Z8S0 whole entry): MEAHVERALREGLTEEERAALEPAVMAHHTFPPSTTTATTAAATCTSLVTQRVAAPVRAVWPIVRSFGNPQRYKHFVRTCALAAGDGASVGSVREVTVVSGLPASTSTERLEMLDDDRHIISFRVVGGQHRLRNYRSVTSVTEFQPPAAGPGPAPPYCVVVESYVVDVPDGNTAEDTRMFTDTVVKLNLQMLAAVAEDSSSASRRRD
pKd: −log10 of the molar value.

compound	pKd
CC1=CC(=O)CC(C)(C)C1(O)/C=C/C(C)=C\C(=O)O (stereo in doubt) [(+)-ABA]	~4.50
